# Test system: HEK-293T
# TEST: Incucyte cell viability with HEK293T; further: unitless GR value; below 1 slowed growth and below 0 cell loss
# Format: toxicity, cell-based
# MEASUREMENT_CONDITIONS: human, 6 h, 10 µM, compound concentration 10 uM, replicate number 1, timepoint 6 hours
Where a SMILES comes first, the peptide text is derived from it. [ ]: non-standard residue; d: D form.
The reader will find reported Growth Rate values listed item by item below.

{"columns": ["COMPOUND", "EXPERIMENTAL_TARGET", "MEASURED_METRIC", "RESULT"],
 "data": [
  ["CCc1cc2cc(NS(=O)(=O)c3ccc(C#N)cc3)ccc2n(CC)c1=O", "HEK-293T", "Growth Rate", 0.21],
  ["N[C@@H]1c2cccnc2[C@H](OC(=O)N2CCC(n3c(=O)[nH]c4ncccc43)CC2)CC[C@H]1c1cccc(F)c1F [RIMEGEPANT]", "HEK-293T", "Growth Rate", 0.99],
  ["CNCCN1CCC(c2cc(CN(C)C(=O)c3cccc(Oc4ccccc4)c3)ccn2)CC1", "HEK-293T", "Growth Rate", 0.74],
  ["COC(=O)Nc1nc2ccc(C(=O)c3cccs3)cc2[nH]1 [NOCODAZOLE]", "HEK-293T", "Growth Rate", -0.46]
]}

Data request: Recorded Growth Rate for `N#Cc1c(Oc2cccc(OS(=O)(=O)CCCC(F)(F)F)c2)cccc1C(F)(F)F` , please?
Data returned: -0.16

Data request: Recorded Growth Rate for CCCCCCCCc1ccc(CCC(N)(CO)CO)cc1 [FINGOLIMOD] , please?
Data returned: -0.74

Data request: Recorded Growth Rate for `CC1=C(C)C(=O)C(C(C)(C)CC(=O)N(CCCCSC[C@H]2O[C@@H](n3cnc4c(N)ncnc43)[C@H](O)[C@@H]2O)Cc2cccc(-c3ccc(Cl)cc3)c2)=C(C)C1=O` , please?
Data returned: 0.57

Data request: Recorded Growth Rate for `Br.Br.c1ncc(CC2CCNCC2)[nH]1` , please?
Data returned: 0.8

Data request: Recorded Growth Rate for CC(C)C[C@@H]1NC(=O)[C@@H](C(C)C)NC(=O)[C@@H]2CCCN2C(=O)[C@@H](CC(=O)O)NC(=O)[C@@H](Cc2c[nH]c3ccccc23)NC1=O [BQ-123] (cyclo(L[dW][dD]P[dV])) , please?
Data returned: 0.89

Data request: Recorded Growth Rate for `CCCn1c(=O)c2[nH]c(C3CCCC3)nc2n(CCC)c1=O` , please?
Data returned: 0.57

----------
# Tested on: HEK-293T
# TEST: Incucyte cell viability with HEK293T; further: unitless GR value; below 1 slowed growth and below 0 cell loss
# Assay type: toxicity, cell-based
# MEASUREMENT_CONDITIONS: human, 6 h, 10 µM, compound concentration 10 uM, replicate number 2, timepoint 6 hours
The reader will find reported Growth Rate values listed item by item below.

Use these answered entries as a reference point.
{"columns": ["COMPOUND", "Growth Rate"],
 "data": [
  ["O=C1NC(Nc2ccccc2)=N/C1=C\\c1ccc2c(c1)OCO2", 0.13],
  ["OC[C@H]1O[C@@H](n2cnc3c(NC4CCCC4)ncnc32)[C@H](O)[C@@H]1O", 0.12],
  ["CC#C[C@@H](CC(=O)O)c1ccc(OCc2cccc(-c3ccc(C(F)(F)F)cc3)c2)cc1", 0.55]
]}

Data request: Recorded Growth Rate for CN1CCN2c3ncccc3Cc3ccccc3C2C1 (stereo not drawn) , please?
Data returned: 0.53

Data request: Recorded Growth Rate for CC1=C(C)C(=O)C(C(CCCCCC(=O)O)c2ccccc2)=C(C)C1=O (stereo not drawn) , please?
Data returned: 0.54

Data request: Recorded Growth Rate for `CN(C)c1ccnc2sc3c(=O)n(N4CCCCCC4)cnc3c12` , please?
Data returned: 0.98
